Source listed as the supplement of paper PMC10567573.

# key: entry, value: protein stability index
B1: ZNF207 (parent)
chain: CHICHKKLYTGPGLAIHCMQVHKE

# Variants of: B1
# protocol_notes: protein stability index of a GFP-peptide fusion (GPS, HEK-293T) (PSI 1-6); higher = more stable;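 also: lentivirally expressed fusions sorted by FACS into six bins by GFP to DsRed ratio, PSI derived from sequencing read proportions per bin multiplied by bin number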
# stated_conditions: c terminus: a fixed tail appended
Simply state the number, no unit and no words.

A15Q; 3.7
P12L; 3.46

Quick one: protein stability index for E24Y ?
2.74

Quick one: protein stability index for H17A ?
2.15

Quick one: protein stability index for I3P ?
1.99

Quick one: protein stability index for H5C ?
2.4

Quick one: protein stability index for L8M ?
4.63

Quick one: protein stability index for M19L ?
2.52

Quick one: protein stability index for K23C ?
3.06

Quick one: protein stability index for K23F ?
2.04

Quick one: protein stability index for H5L ?
3.01

Quick one: protein stability index for K6A ?
4.37

Quick one: protein stability index for H17D ?
2.47

Quick one: protein stability index for K6S ?
3.54

Quick one: protein stability index for C18L ?
3.69

Quick one: protein stability index for H2A ?
2.71

Quick one: protein stability index for C1A ?
2.02

Quick one: protein stability index for L8Y ?
2.33

Quick one: protein stability index for C4Q ?
2.01

Quick one: protein stability index for G13K ?
3.15

Quick one: protein stability index for Q20D ?
3.28

Quick one: protein stability index for M19E ?
4.47
